Origin of values: patent US5753679A

- assayedSystem: dopamine D4 receptor (Homo sapiens)
- Construct: expressed in transfected cells; host or cells: CHO (Chinese Hamster Ovary) cells, D4-CHO, crude membranes
- Sequence (P21917 whole entry): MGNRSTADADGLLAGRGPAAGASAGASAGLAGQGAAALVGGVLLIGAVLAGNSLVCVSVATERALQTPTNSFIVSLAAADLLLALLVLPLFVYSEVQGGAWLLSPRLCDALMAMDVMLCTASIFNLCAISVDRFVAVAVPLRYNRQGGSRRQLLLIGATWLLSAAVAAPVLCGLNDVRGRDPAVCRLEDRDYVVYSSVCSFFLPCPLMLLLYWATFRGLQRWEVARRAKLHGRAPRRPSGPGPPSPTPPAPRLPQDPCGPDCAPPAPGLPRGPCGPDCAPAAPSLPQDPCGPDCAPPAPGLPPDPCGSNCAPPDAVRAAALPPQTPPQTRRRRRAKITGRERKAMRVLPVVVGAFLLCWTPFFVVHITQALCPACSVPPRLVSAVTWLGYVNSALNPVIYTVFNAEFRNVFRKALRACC
- runDescription: Binding to the D4 receptor, [3H]-spiperone displacement, D4-CHO membranes
- experimentalParameters: [3H]-spiperone 200 pM, D4-CHO crude membranes, room temperature, 90 minutes, pH 7.4; read-out: Ki at D4
assayReadout: Ki
Reply with the number, then its unit.

Give me Ki for each of these compounds, listed below.
1. Cc1ccc(C(=O)OC2CCN(Cc3ccccc3N)CC2)cc1 [R/69a]
2. Cc1ccc(C(=O)OC2CCN(Cc3cccc(N)c3)CC2)cc1 [Q/73a]
3. Cc1ccc(C(=O)OC2CCN(Cc3ccccc3)CC2)cc1 [F/25a]
4. Cc1ccc(CN2CCC(OC(=O)c3ccccc3)CC2)cc1 [k/78b]

1. 0.0175 µM
2. 0.019 µM
3. 0.008 µM
4. 0.0038 µM

For each of the compounds below, note its Ki.
1. Nc1ccc(C(=O)OC2CCN(Cc3ccccc3)CC2)nc1
2. O=C(OC1CCN(Cc2cccc([N+](=O)[O-])c2)CC1)c1ccccc1 [M/70b]
3. CNc1ccc(C(=O)OC2CCN(Cc3ccccc3)CC2)cc1 [G/32b]
4. Cc1ccc(C(=O)OC2CCN(Cc3ccc(Cl)cc3)CC2)cc1 [I/59a]
5. Cc1ccc(C(=O)OC2CCN(Cc3ccccc3)CC2)c(C)c1 [N/46a]
6. O=C(OC1CCN(Cc2ccc(Cl)cc2)CC1)c1ccc(Cl)cc1 [J/82a]
7. Cc1ccccc1C(=O)OC1CCN(Cc2ccccc2)CC1 [E/24a]

1. 0.0164 µM
2. 0.013 µM
3. 0.005 µM
4. 0.015 µM
5. 0.009 µM
6. 0.018 µM
7. 0.006 µM

Can you give me Ki for all of these, one by one?
1. COc1ccc(CN2CCC(OC(=O)c3ccccc3)CC2)cc1 [S/80c]
2. Cc1ccc(C(=O)OC2CCN(Cc3cccc([N+](=O)[O-])c3)CC2)cc1 [P/71a]
3. O=C(OC1CCN(Cc2ccc(F)cc2)CC1)c1ccccc1 [O/64b]
4. O=C(OC1CCN(Cc2ccccc2)CC1)c1ccc(I)cc1 [D/22a, 1-Benzyl-piperidin-4-yl 4-iodo-benzoate]
5. O=C(OC1CCN(Cc2ccccc2)CC1)c1ccc(Br)cc1 [C/19b, 1-Benzyl-piperidin-4-yl 4-bromo-benzoate]
6. O=C(OC1CCN(Cc2ccc(Cl)cc2)CC1)c1ccccc1 [H/58c]

1. 0.015 µM
2. 0.019 µM
3. 0.018 µM
4. 0.015 µM
5. 0.01 µM
6. 0.0073 µM

What measured Ki goes with Cc1ccc(CN2CCC(OC(=O)c3ccc(C)cc3)CC2)cc1 [L/79a] ?
0.0052 µM
